B1: PHTF1 (parent)
chain: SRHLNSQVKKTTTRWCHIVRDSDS

Variants of: B1
Test: protein stability index of a GFP-peptide fusion (GPS, HEK-293T) (PSI 1-6); higher = more stable;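 further: lentivirally expressed fusions sorted by FACS into six bins by GFP to DsRed ratio, PSI derived from sequencing read proportions per bin multiplied by bin number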
Settings: c terminus: a fixed tail appended
Assay Endpoint: protein stability index

• SGHLNSQVKKTTTRWCHIVRDSDS [R2G] = 1.69
• SRHLNSQVKKTTTRWCHIVRDSDP [S24P] = 2.01
• SRHLNSQVKKTTTRWCHIVRESDS [D21E] = 1.5
• SWHLNSQVKKTTTRWCHIVRDSDS [R2W] = 2.08
• SRHLNSQVKKTTTRWCHIVRDSFS [D23F] = 2.65
• SRHLNGQVKKTTTRWCHIVRDSDS [S6G] = 1.98
• SRILNSQVKKTTTRWCHIVRDSDS [H3I] = 1.25
• SRHLNSQVGKTTTRWCHIVRDSDS [K9G] = 2.55
• SRHLNSQVKNTTTRWCHIVRDSDS [K10N] = 2.72
• SRHSNSQVKKTTTRWCHIVRDSDS [L4S] = 2.29
• SRHLNSQVKKVTTRWCHIVRDSDS [T11V] = 1.13
• SRHLNSQVKKTTTFWCHIVRDSDS [R14F] = 2.04
• SRHLNSQVKKTTTRWIHIVRDSDS [C16I] = 1.84
• SRHLNSQVKKTTTRWCRIVRDSDS [H17R] = 2.58
• SRHLNSQVKKTFTRWCHIVRDSDS [T12F] = 1.66
• SRHLNSRVKKTTTRWCHIVRDSDS [Q7R] = 2
• SCHLNSQVKKTTTRWCHIVRDSDS [R2C] = 2.12
• SRHLNSQVKGTTTRWCHIVRDSDS [K10G] = 2.55
• SRHLNSQVKKTTTRWCHIVVDSDS [R20V] = 3.11
• SRHLNSQVKKTTTRWCHIVFDSDS [R20F] = 2.37
• SRHLNSQVKKTTTRWCHIVRDYDS [S22Y] = 1.94
• SRHLCSQVKKTTTRWCHIVRDSDS [N5C] = 2.33
• SRHLNSQVKKTTTRWCHIVRVSDS [D21V] = 1.37
• SRHLDSQVKKTTTRWCHIVRDSDS [N5D] = 2.53
• SRHLNSQVKKTTTRWGHIVRDSDS [C16G] = 3.53
• SRHLNSQVKKTTTRWCHIVRDSSS [D23S] = 3.1
• SYHLNSQVKKTTTRWCHIVRDSDS [R2Y] = 2
• SRHLNSQVKKTTTRWCHIVRDSDV [S24V] = 1.88
• SRHLNSQVKKTTTRWCHWVRDSDS [I18W] = 2.15
• SRGLNSQVKKTTTRWCHIVRDSDS [H3G] = 2.21
• SRHKNSQVKKTTTRWCHIVRDSDS [L4K] = 2.56
